# TESTED_SYSTEM: human PLK4 (Homo sapiens (Human))
# Sequence (O00444 1-391): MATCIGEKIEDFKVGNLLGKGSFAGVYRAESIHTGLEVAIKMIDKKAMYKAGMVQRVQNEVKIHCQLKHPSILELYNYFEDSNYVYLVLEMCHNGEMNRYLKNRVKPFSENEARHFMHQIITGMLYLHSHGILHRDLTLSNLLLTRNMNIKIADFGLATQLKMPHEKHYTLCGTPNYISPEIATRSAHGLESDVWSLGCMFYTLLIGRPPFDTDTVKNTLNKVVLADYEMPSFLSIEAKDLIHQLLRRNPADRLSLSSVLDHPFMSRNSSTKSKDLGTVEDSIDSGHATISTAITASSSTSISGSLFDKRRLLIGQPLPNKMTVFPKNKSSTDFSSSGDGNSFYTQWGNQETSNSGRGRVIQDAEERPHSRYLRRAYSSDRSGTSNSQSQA
# TEST_DETAILS: PLK4 inhibition assay (indirect ELISA)
# Type: biochemical
# CONDITION_PARAMETERS: read-out: PLK4 IC50 Ranges
pIC50: −log10 of the molar value.
So I've got a bunch of molecules here, and I need their pIC50 values.

- MOLECULE: "COc1ccc2c(c1)[C@]1(C[C@H]1c1ccc3c(I)n[nH]c3c1)C(=O)N2 [Example A7]"
  pIC50: "> 7.00"
- MOLECULE: "COc1ccc2c(c1)[C@]1(C[C@H]1c1ccc3c(-c4ccc5nccn5c4)n[nH]c3c1)C(=O)N2 [Example A107, 2,2,2-trifluoroacetate]"
  pIC50: "> 7.00"

Which measured pIC50 value corresponds to COc1ccc2c(c1)[C@]1(C[C@H]1c1ccc3c(-c4ccc(N5CC[C@@H](N(C)C)C5)cc4)n[nH]c3c1)C(=O)N2 [Example A127, 2,2,2-trifluoroacetate] ? > 7.00
